So I've got a bunch of compounds here, and I need their Activity values.
# Assay procedure: Aggregation property of the compound in ammonium acetate buffer at pH 7.6 assessed as particle size at 100 uM in presence of Triton X-100 by dynamic light scattering method
# Assay type: physicochemical
# Test settings: pH 7.6, 100 µM
Numbers only, in nm.

O=C(Nc1nnc(-c2ccccc2Cl)o1)c1cccc(Oc2ccccc2)c1; 516
CC(C)(C)C(=O)Nc1nnc(-c2ccc(Br)cc2)o1; 201
Cc1ccc(C)c(-c2nnc(NC(=O)c3ccc([N+](=O)[O-])s3)o2)c1; 151
CCSc1ccc(C(=O)Nc2nnc(-c3ccco3)o2)cc1; 185
CSc1ccc2nc(Nc3nc4ccc(NC(C)=O)cc4s3)sc2c1; 271
Cc1ccc(-c2nnc(NC(=O)c3ccccc3Cl)o2)c(C)c1; 212

Indicate its recorded Activity; the compound in question is CCSc1ccc(C(=O)Nc2nnc(-c3ccc4c(c3)CCCC4)o2)cc1 480

###

# Assay procedure: Aggregation property of the compound in ammonium acetate buffer at pH 7.6 assessed as light scattering intensity counts at 100 uM in absence of Triton X-100 by dynamic light scattering method
# Format: physicochemical
# Test settings: pH 7.6, 100 µM
Attribute measured: Activity (kCounts)
One number for each entry, in kCounts.

Look over these answered cases.
O=C(/C=C/c1ccccc1)Nc1nnc(-c2ccc3c(c2)CCCC3)o1; 310
CCCCC(=O)Nc1nnc(-c2ccc3c(c2)CCCC3)o1; 280
Cc1cc(C)c2sc(N3CCCC3)nc2c1; 300
CC(C)(C)C(=O)Nc1nnc(-c2ccc(Br)cc2)o1; 260
CCc1cccc2sc(N(CCCn3ccnc3)C(=O)/C=C/c3cccs3)nc12; 400
Cc1ccc(-c2nnc(NC(=O)c3ccc([N+](=O)[O-])o3)o2)c(C)c1; 190
O=C(Nc1nnc(-c2ccccc2Cl)o1)c1cccc(Oc2ccccc2)c1; 350
Cc1ccc(C)c(-c2nnc(NC(=O)c3ccc([N+](=O)[O-])s3)o2)c1; 240
O=C(c1cccs1)N(CCCn1ccnc1)c1nc2c(F)cc(F)cc2s1; 321
CCSc1ccc(C(=O)Nc2nnc(-c3ccc4c(c3)CCCC4)o2)cc1; 340

I need Activity for every entry listed below, if you could help.
1. CSc1ccc2nc(Nc3nc4ccc(NC(C)=O)cc4s3)sc2c1
2. CCOc1ccc(C(=O)Nc2nnc(-c3ccc(C)cc3C)o2)cc1

1: 285; 2: 300
